# test: Urinary excretion of flavanol metabolites (0-24 h) after a single serving of soluble cocoa product (HPLC-ESI-QToF-MS)
# Format: in vivo, human
# condition_set: after CC (19.80 mg flavanols), mean ± SD, n = 13
test_readout: Excreted in urine, 0–4 h (µmol)

| compound | test_readout | result_number |
| --- | --- | --- |
| O=C(O)CCc1ccc(O)cc1 [Hydroxyphenylpropionic acid] | Excreted in urine, 0–4 h | 0.226 |
| O=C(O)C1OC(Oc2cc(C3Oc4cc(O)cc(O)c4CC3O)ccc2O)C(O)C(O)C1O (centres unmarked) [Epicatechin-3′-glucuronide] | Excreted in urine, 0–4 h | 0.355 |
| COc1cc(CCC(=O)O)ccc1O [3-Methoxy-4-hydroxyphenylpropionic acid] | Excreted in urine, 0–4 h | 0.144 |
| COc1cc([C@H]2Oc3cc(OS(=O)(=O)O)cc(O)c3C[C@H]2O)ccc1O (single isomer, unassigned) [Epicatechin-methoxy-sulfate (isomer 2), Epicatechin-methoxy-sulfate] | Excreted in urine, 0–4 h | 0.181 |
| COc1ccc(/C=C/C(=O)O)cc1O | Excreted in urine, 0–4 h | 0.086 |

----------
# test: Urinary excretion of flavanol metabolites (0-24 h) after a single serving of soluble cocoa product (HPLC-ESI-QToF-MS)
# Format: in vivo, human
# condition_set: after CC (19.80 mg flavanols), mean ± SD, n = 13
test_readout: Excreted in urine, 4–8 h

| compound | test_readout | result |
| --- | --- | --- |
| O=C(O)CCC(O)Cc1ccc(O)c(O)c1 (stereo not shown) | Excreted in urine, 4–8 h | <L.Q. |
| O=C(O)C1OC(Oc2cc(C3Oc4cc(O)cc(O)c4CC3O)ccc2O)C(O)C(O)C1O (stereo not shown) [Epicatechin-3′-glucuronide] | Excreted in urine, 4–8 h | 0.267 ± 0.059 µmol |
| COc1cc(CC(=O)O)ccc1O [3-Methoxy-4-hydroxyphenylacetic acid] | Excreted in urine, 4–8 h | 0.093 ± 0.028 µmol |
| COc1cc([C@H]2Oc3cc(OS(=O)(=O)O)cc(O)c3C[C@H]2O)ccc1O (single isomer, unassigned) [Epicatechin-methoxy-sulfate (isomer 2), Epicatechin-methoxy-sulfate] | Excreted in urine, 4–8 h | 0.247 ± 0.030 µmol |

----------
Entries and their measured AUC follow.
# test: Plasma nutrikinetics of flavanol metabolites after a single serving of soluble cocoa product (HPLC-ESI-QToF-MS)
# Assay type: in vivo, human
# condition_set: both sexes, oral; human plasma 0-8 h, after CC-PP (68.25 mg flavanols), mean ± SD, n = 13; read-out: AUC
test_readout: AUC (µM·h)

| compound | test_readout | units | result_number |
| --- | --- | --- | --- |
| O=C(O)C1OC(Oc2cc(C3Oc4cc(O)cc(O)c4CC3O)ccc2O)C(O)C(O)C1O (stereo not shown) [Epicatechin-3′-glucuronide] | AUC | µM·h | 0.11 |
| COc1cc([C@H]2Oc3cc(OS(=O)(=O)O)cc(O)c3C[C@H]2O)ccc1O (single isomer, unassigned) [Epicatechin-methoxy-sulfate (isomer 2), Epicatechin-methoxy-sulfate] | AUC | µM·h | 0.145 |
| COc1cc([C@H]2Oc3cc(O)cc(OS(=O)(=O)O)c3C[C@H]2O)ccc1O (single isomer, unassigned) [Epicatechin-methoxy-sulfate (isomer 1), Epicatechin-methoxy-sulfate] | AUC | µM·h | 0.173 |
| O=C1CCC(Cc2cccc(OS(=O)(=O)O)c2)O1 (stereo not shown) [PVL-3′-sulfate, 5-Phenyl-γ-valerolactone-3′-sulfate] | AUC | µM·h | 0.161 |
| O=C1CCC(Cc2ccc(O)c(OC3OC(C(=O)O)C(O)C(O)C3O)c2)O1 (stereo not shown) [HPVL-3′-glucuronide] | AUC | µM·h | 1.43 |
| O=S(=O)(O)Oc1cc([C@H]2Oc3cc(O)cc(O)c3C[C@H]2O)ccc1O [Epicatechin-3′-sulfate] | AUC | µM·h | 0.109 |
| O=C1CCC(Cc2ccc(O)c(O)c2)O1 (stereo not shown) [DHPVL] | AUC | µM·h | 0.192 |

----------
# test: Urinary excretion of flavanol metabolites (0-24 h) after a single serving of soluble cocoa product (HPLC-ESI-QToF-MS)
# Type: in vivo, human
# condition_set: after CC (19.80 mg flavanols), mean ± SD, n = 13
test_readout: Excreted in urine, 12–24 h

| compound | result |
| --- | --- |
| COc1cc(CCC(=O)O)ccc1O [3-Methoxy-4-hydroxyphenylpropionic acid] | <L.Q. |
| O=C1CCC(Cc2cccc(OS(=O)(=O)O)c2)O1 (stereo not shown) [PVL-3′-sulfate, 5-Phenyl-γ-valerolactone-3′-sulfate] | 0.375 ± 0.133 µmol |
| O=C1CCC(Cc2ccc(O)c(O)c2)O1 (stereo not shown) | <L.Q. |
| O=C1CCC(Cc2cccc(O)c2)O1 (stereo not shown) [HPVL, 5-(3′-Hydroxyphenyl)-γ-valerolactone] | <L.Q. |

----------
# test: Urinary excretion of flavanol metabolites (0-24 h) after a single serving of soluble cocoa product (HPLC-ESI-QToF-MS)
# Assay type: in vivo, human
# condition_set: after CC-PP (68.25 mg flavanols), mean ± SD, n = 13
Entries and their measured Excreted in urine, 8–12 h follow.

| compound | Excreted in urine, 8–12 h / µmol |
| --- | --- |
| O=C1CCC(Cc2ccc(O)c(OC3OC(C(=O)O)C(O)C(O)C3O)c2)O1 (centres unmarked) [HPVL-3′-glucuronide] | 0.274 |
| O=C1CCC(Cc2ccc(O)c(O)c2)O1 (centres unmarked) | 0.174 |
| O=C(O)Cc1ccc(O)c(O)c1 [3,4-Dihydroxyphenylacetic acid] | 0.198 |
| O=C(O)c1ccc(O)c(O)c1 [Protocatechuic acid, 3,4-Dihydroxybenzoic acid] | 0.095 |
| O=C1CCC(Cc2ccc(O[C@@H]3O[C@H](C(=O)O)[C@@H](O)[C@H](O)[C@H]3O)c(O)c2)O1 (some centres unmarked) [HPVL-4′-glucuronide] | 0.550 |
| O=S(=O)(O)Oc1cc([C@H]2Oc3cc(O)cc(O)c3C[C@H]2O)ccc1O [Epicatechin-3′-sulfate] | 0.158 |
| COc1cc([C@H]2Oc3cc(OS(=O)(=O)O)cc(O)c3C[C@H]2O)ccc1O (single isomer, unassigned) [Epicatechin-methoxy-sulfate (isomer 2), Epicatechin-methoxy-sulfate] | 0.077 |
| O=C(O)Cc1cccc(O)c1 [Hydroxyphenylacetic acid, 3-Hydroxyphenylacetic acid] | 0.434 |
| COc1ccc(/C=C/C(=O)O)cc1O | 0.152 |
| O=C1CCC(Cc2cccc(OC3OC(C(=O)O)C(O)C(O)C3O)c2)O1 (centres unmarked) [PVL-3′glucuronide, 5-Phenyl-γ-valerolactone-3′-glucuronide] | 0.179 |
| O=C(O)CCc1ccc(O)cc1 [Hydroxyphenylpropionic acid] | 0.140 |
| O=C(O)CCc1ccc(O)c(O)c1 [3,4-Dihydroxyphenylpropionic acid] | 0.109 |
| O=C1CCC(Cc2cccc(OS(=O)(=O)O)c2)O1 (centres unmarked) [PVL-3′-sulfate, 5-Phenyl-γ-valerolactone-3′-sulfate] | 1.223 |
| COc1cc([C@H]2Oc3cc(O)cc(OS(=O)(=O)O)c3C[C@H]2O)ccc1O (single isomer, unassigned) [Epicatechin-methoxy-sulfate (isomer 1), Epicatechin-methoxy-sulfate] | 0.330 |

----------
# test: Urinary excretion of flavanol metabolites (0-24 h) after a single serving of soluble cocoa product (HPLC-ESI-QToF-MS)
# Assay type: in vivo, human
# condition_set: after CC-PP (68.25 mg flavanols), mean ± SD, n = 13
Label scheme for Excreted in urine, 12–24 h: lower than 0.3 µmol is no (0), 0.3 µmol and above is yes (1).

| compound | class_assignment |
| --- | --- |
| COc1cc(CC(=O)O)ccc1O [3-Methoxy-4-hydroxyphenylacetic acid] | no (0) |
| O=C(O)CCc1ccc(O)cc1 [Hydroxyphenylpropionic acid] | no (0) |
| COc1cc(CCC(=O)O)ccc1O [3-Methoxy-4-hydroxyphenylpropionic acid] | no (0) |
| O=C1CCC(Cc2cccc(OC3OC(C(=O)O)C(O)C(O)C3O)c2)O1 (centres unmarked) [PVL-3′glucuronide, 5-Phenyl-γ-valerolactone-3′-glucuronide] | yes (1) |
| O=C1CCC(Cc2ccc(O[C@@H]3O[C@H](C(=O)O)[C@@H](O)[C@H](O)[C@H]3O)c(O)c2)O1 (some centres unmarked) [HPVL-4′-glucuronide] | no (0) |
| O=C1CCC(Cc2ccc(O)c(OC3OC(C(=O)O)C(O)C(O)C3O)c2)O1 (centres unmarked) [HPVL-3′-glucuronide] | no (0) |

----------
Entries and their measured AUC follow.
# test: Plasma nutrikinetics of flavanol metabolites after a single serving of soluble cocoa product (HPLC-ESI-QToF-MS)
# Type: in vivo, human
# condition_set: both sexes, oral, 19.8 mg; human plasma 0-8 h, after CC (19.80 mg flavanols), mean ± SD, n = 13; read-out: AUC

| compound | AUC |
| --- | --- |
| O=C1CCC(Cc2ccc(O)c(OC3OC(C(=O)O)C(O)C(O)C3O)c2)O1 (centres unmarked) [HPVL-3′-glucuronide] | 0.106 µM·h |
| O=C(O)C1OC(Oc2cc(C3Oc4cc(O)cc(O)c4CC3O)ccc2O)C(O)C(O)C1O (centres unmarked) [Epicatechin-3′-glucuronide] | 0.072 µM·h |
| O=C1CCC(Cc2ccc(O)c(O)c2)O1 (centres unmarked) [DHPVL] | 0.124 µM·h |
| O=S(=O)(O)Oc1cc([C@H]2Oc3cc(O)cc(O)c3C[C@H]2O)ccc1O [Epicatechin-3′-sulfate] | 0.101 µM·h |
| COc1cc([C@H]2Oc3cc(O)cc(OS(=O)(=O)O)c3C[C@H]2O)ccc1O (single isomer, unassigned) [Epicatechin-methoxy-sulfate (isomer 1), Epicatechin-methoxy-sulfate] | 0.122 µM·h |

Just for reference, paper PMC6683251 is where these values come from.
